Collected growth values appear next to each entry.
System: HCT-116 colon
experimentNotes: NCI-60 one-dose screen, 48 h (100 = growth as untreated, 0 = no growth, -100 = all killed)
runParameters: 10 µM unless noted
This is part of a sample that, as a whole, favours compounds with a hit. Of some 83,000 tested, about 20% had one in any assay.
// return numeric value only (unit: %, not printed)

The cases that follow already have their growth on record.
>  <molecule>
CCCCCCC(=O)NC1=C(N2CC2)C(=O)C(NC(=O)CCCCCC)=C(N2CC2)C1=O

>  <growth / %>
-14.1

$$$$
>  <molecule>
Cc1cc(N(CCCl)CCCl)ccc1C=Nc1ccccc1-c1ccccc1

>  <growth / %>
75.8

$$$$
>  <molecule>
C/C(=C\c1cc(C(F)(F)F)nn1CCNC(=O)OC(C)(C)C)[C@@H]1C[C@@H]2O[C@]2(C)CCC[C@H](C)[C@H](O)[C@@H](C)C(=O)C(C)(C)[C@@H](O)CC(=O)O1

>  <growth / %>
23.3

$$$$
>  <molecule>
CCN(CC)c1ccc2c(c1)OC(N)=C(C#N)C2c1cc(OC)c2c(c1)OCO2 (stereo not drawn)

>  <growth / %>
-8.55

$$$$
>  <molecule>
CC(=O)OC1CCC2(C)C(CCC3C2CC(=O)C2(C)C3CC(Sc3ccc(N(CCCl)CCCl)cc3)C2C(C)=O)C1 (stereo not drawn)

>  <growth / %>
72

$$$$

# input Requested read-out: growth. Entry: CC(=O)O[C@H](C[C@H](C(C)C)N(C)C(=O)[C@@H](NC(=O)[C@H]1CCCCN1C)C(C)C)c1nc(C(=O)N[C@@H](Cc2ccccc2)C[C@H](C)C(=O)O)c(CCOCc2ccccc2)s1
# output -22.2

# input Requested read-out: growth. Entry: O=C(N/N=C\c1ccc(N(CCCl)CCCl)cc1Cl)c1cccnc1
# output 43

# input Requested read-out: growth. Entry: CCCCC1(CCC)C(=O)NC(=S)NC1=O
# output 99.2

* * *

Collected growth values appear next to each entry.
Tested on: MALME-3M melanoma
experimentNotes: NCI-60 one-dose screen, 48 h (100 = growth as untreated, 0 = no growth, -100 = all killed)
runParameters: 10 µM unless noted
This is part of a sample that, as a whole, favours compounds with a hit. Of some 83,000 tested, about 20% had one in any assay.
// return numeric value only (unit: %, not printed)

>  <compound>
CNC12C3C4C1C1C2C3C41C(=O)N[C@H](C(=O)N(C)[C@H](C[C@@H](OC(C)=O)c1nc(C(=O)N[C@@H](Cc2ccccc2)C[C@H](C)C(=O)OC)cs1)C(C)C)C1CC1 (some centres undefined)

>  <endpointLabel>
growth

>  <valueObserved>
34

$$$$
>  <compound>
Clc1ccc(CO/N=C(\Cn2ccnc2)c2ccc(Cl)cc2Cl)c(Cl)c1

>  <endpointLabel>
growth

>  <valueObserved>
-50.8

$$$$
>  <compound>
N#CC1(C#N)C(c2ccc(N(CCCl)CCCl)cc2)OC23CCCCC2C1(C#N)C(=N)O3 (centres undefined)

>  <endpointLabel>
growth

>  <valueObserved>
96.9

$$$$

# input Requested read-out: growth. Entry: COC(=O)[C@@H](C)C[C@H](Cc1cn(C)c2ccccc12)NC(=O)c1csc([C@@H](C[C@H](C(C)C)N(C)C(=O)[C@@H](NC(=O)[C@H]2CCCCN2C)C(C)C)OC(C)=O)n1
# output 50.4

* * *

System: KM12 colon
experimentNotes: NCI-60 one-dose screen, 48 h
runParameters: 10 µM unless noted
Compounds without any hit were thinned out: in the full panel of roughly 83,000, 20% have a hit. Activity calls are given as the source filed them. Rule for the calls: active = growth percent below 10; inactive = the rest.
Hello, when you answer, please use one of the following outcomes: 1.0 (active), 0.0 (inactive)

Some solved cases for reference:
>  <molecule>
Cn1cc(-c2csc(-c3cn(CCN4CCOCC4)c4ccccc34)n2)c2cccnc21

>  <classification>
0.0

$$$$
>  <molecule>
CC(=O)Oc1ccccc1C(=O)NCCC[Se]C#N

>  <classification>
0.0

$$$$
>  <molecule>
CCn1cnc2c(Nc3cccc(Cl)c3)nc(N[C@@H]3CCCC[C@@H]3N)nc21

>  <classification>
1.0

$$$$

# input Test call for this molecule, please: COC[C@@H]1C[C@@]2(C)[C@@H](CC[C@@H]3[C@@H]2CC[C@@]2(C)[C@H]3CC[C@]2(C)O)CC1=O
# output 0.0

# input Test call for this molecule, please: COc1ccc(/C=C\c2cc(OC)c(OC)c(OC)c2)cc1NS(=O)(=O)c1ccc(Cl)cc1
# output 0.0

# input Test call for this molecule, please: COc1ccc(N(CC(=O)NCCC[Te]c2ccccc2)C(=O)CNC(=O)OC(C)(C)C)cc1
# output 0.0

# input Test call for this molecule, please: O=c1[nH]c2ccc([N+](=O)[O-])cc2c(=O)o1
# output 0.0

# input Test call for this molecule, please: CC[C@H](C)[C@H](NC(=O)c1nccn1C)C(=O)N(C)[C@H](C[C@@H](OC(C)=O)c1nc(C(=O)N[C@@H](Cc2ccccc2)C[C@H](C)C(=O)OC)cs1)C(C)C
# output 0.0

# input Test call for this molecule, please: COc1ccc([As]=[As]c2ccc(OC)c(NCS(=O)(=O)O)c2)cc1NCS(=O)(=O)O (centres undefined)
# output 0.0

* * *

Tested on: NCI/ADR-RES ovarian
experimentNotes: NCI-60 one-dose screen, 48 h (100 = growth as untreated, 0 = no growth, -100 = all killed)
runParameters: 10 µM unless noted
About 83,000 compounds went through this panel and 20% of them were active in at least one assay; those are over-represented in the sample as a whole. The source made the active and inactive calls. Rule for the calls: active = growth percent below 10; inactive = the rest.
endpointLabel: growth

The cases that follow already have their growth on record.
>  <compound>
CCOC(=S)S[C@H]1C[C@@H]2[C@H](CC[C@]3(C)C(=O)CC[C@@H]23)[C@@]2(C)CCC(=O)C=C12

>  <valueObserved>
102% (inactive)

$$$$
>  <compound>
COC(=O)[C@@H](C)C[C@H](Cc1ccccc1)NC(=O)c1csc([C@@H](C[C@H](C(C)C)N(C)C(=O)[C@@H](NC(=O)[C@H]2CCCCN2C)c2ccc(F)cc2)OC(C)=O)n1

>  <valueObserved>
5.55% (active)

$$$$
>  <compound>
CCNc1nc(Cl)nc(NCC)n1

>  <valueObserved>
101% (inactive)

$$$$
>  <compound>
Clc1cc(N2CC2)nc(N2CC2)n1

>  <valueObserved>
71.7% (inactive)

$$$$
>  <compound>
COc1cc(/C=C/[N+](=O)[O-])cc(OC)c1

>  <valueObserved>
11.3% (inactive)

$$$$

# input Requested read-out: growth. Entry: O=C(CCCCCCC(=O)Nc1ccc(N(CCCl)CCCl)cc1)NO
# output 64.6% (inactive)

# input Requested read-out: growth. Entry: CC[C@H](C)[C@@H]([C@@H](CC(=O)N1CCC[C@H]1[C@H](OC)[C@@H](C)C(=O)N[C@H](C)[C@@H](O)c1ccccc1)OC)N(C)C(=O)[C@@H](NC(=O)[C@@H](NC)C(C)C)C(C)C
# output -2.45% (active)

* * *

System: HS 578T breast
experimentNotes: NCI-60 one-dose screen, 48 h (100 = growth as untreated, 0 = no growth, -100 = all killed)
runParameters: 10 µM unless noted
Protocol: Growth inhibition of the HS 578T human tumor cell line is measured as a screen for anti-cancer activity. Cells are grown in 96 well plates and exposed to the test compound for 48 hours. Compounds are tested at a single concentration, which is 10^-5 M for most compounds. The reported endpoint is percent growth (GI% or GIPRCNT), where numbers from 0 - 100% represent growth inhibition, and numbers from -100% - 0 represent cell death. For example, a value of 40 represents 60% growth inhibition. […]
This is part of a sample that, as a whole, favours compounds with a hit. Of some 83,000 tested, about 20% had one in any assay.
Assign Condition met whenever growth does not fall below 80%; assign Condition not met whenever it does.

>  <compound>
ClCCN(CCCl)c1ccc(/C=N/Nc2ncnc3nc[nH]c23)cc1

>  <classification>
Condition met

$$$$
>  <compound>
O=C([O][Hg][c]1ccccc1)c1ccccc1

>  <classification>
Condition not met

$$$$
>  <compound>
CCn1cnc2c(Nc3cccc(Cl)c3)nc(N[C@@H]3CCCC[C@@H]3N)nc21

>  <classification>
Condition not met

$$$$
>  <compound>
Cn1cc(-c2csc(-c3cn(CCN4CCOCC4)c4ccc(F)cc34)n2)c2cccnc21

>  <classification>
Condition not met

$$$$
>  <compound>
Clc1cc(N2CC2)nc(N2CC2)n1

>  <classification>
Condition met

$$$$
>  <compound>
CC(C)=CCC[C@H](C(=O)O)[C@@H]1CC[C@]2(C)C3=C(CC[C@@]12C)[C@@]1(C)CC[C@H](O)C(C)(C)[C@@H]1CC3

>  <classification>
Condition met

$$$$
>  <compound>
CC(=O)O[C@H](C[C@H](C(C)C)N(C)C(=O)[C@@H](NC(=O)[C@H]1CCCCN1C)C(C)C)c1nc(C(=O)NC2CCC(C(=O)O)CC2)cs1 (some centres undefined)

>  <classification>
Condition not met

$$$$

# input In plain terms: is recorded growth at least 80% for O=C1Nc2ccccc2C2c3cccn3-c3ccccc3CN12 (centres undefined) ?
# output Condition not met
